# ASSAY_DETAILS: Tmax in Sprague-Dawley rat at 25 mg/kg, IG measured for 24 hrs by LC-MS/MS analysis
# Format: ADME, organism-based
# PARTICULARS: in vivo, po

# COMPOUND_SMILES, Tmax (h)
measured = [
    ("O=c1cnc(Cc2ccccc2)nn1Cc1ccc(Cl)cc1Cl", 4),
]

* * *

# ASSAY_DETAILS: Elimination rate constant in Sprague-Dawley rat at 1.8 mg/kg, iv measured for 24 hrs by LC-MS/MS analysis
# Assay type: ADME, organism-based
# PARTICULARS: in vivo
MEASURED_ENDPOINT: k el at 24 h (s⁻¹)

# COMPOUND_SMILES, MEASURED_ENDPOINT, RESULT_VALUE
data = [
    ("O=c1cnc(Cc2ccccc2)nn1Cc1ccc(Cl)cc1Cl", "k el at 24 h", "2.5e-05"),
]
